Cited source: patent US20250282768A1

# Test system: p-IKKa levels in L363 (NIK translocated multiple myeloma) cells
# assay_details: Assay 2: Effect of compounds on p-IKKa levels in L363 (NIK translocated multiple myeloma) cells
# Format: cell-based
# experimental_setup: Homo sapiens, L-363, 6 h, read-out: Assay 2 IC50 (nM), p-IKKa (Ser 176/180) in BAFF stimulated L363 cells with MG132, 6 h; average if tested more than once
List of IC50 values.

Check out these entries, answers already filled in.
CN1CC[C@@](O)(c2cc(-c3cccc(-c4ccnc(Nc5cn(C)nc5Cl)n4)n3)no2)C1=O	< 50 nM
CN1CC[C@@](O)(c2cc(-c3cccc(-c4ccnc(NC(c5ccccn5)C5CC5)n4)n3)no2)C1=O (stereo partly shown)	> 500 nM
CN1CC[C@@](O)(c2cc(-c3cccc(-c4ccnc(NC5CC56CCOC6)n4)n3)no2)C1=O (stereo partly shown)	> 500 nM

Dear colleague, I am looking for the recorded IC50 of the following compound: Cc1cnn(-c2nccc(-c3cccc(-c4cc([C@]5(O)CCN(C)C5=O)on4)n3)n2)c1N
> 500 nM

Input CN(C)CCn1ccc(Nc2nccc(-c3cccc(-c4cc([C@]5(O)CCN(C)C5=O)on4)n3)n2)n1
< 50 nM

Input CN1CC[C@@](O)(c2cc(-c3cccc(-c4ccnc(Nc5cncc(C#N)c5)n4)n3)no2)C1=O
< 50 nM

Input Cc1ccncc1Nc1nccc(-c2cccc(-c3cc([C@]4(O)CCN(C)C4=O)on3)n2)n1
50 to 500 nM

----------
List of IC50 values.
# Tested on: p-IKKa levels in L363 (NIK translocated multiple myeloma) cells
# assay_details: Assay 2: Effect of compounds on p-IKKa levels in L363 (NIK translocated multiple myeloma) cells
# Type: cell-based
# experimental_setup: Homo sapiens, L-363, 6 h, read-out: Assay 2 IC50 (nM), p-IKKa (Ser 176/180) in BAFF stimulated L363 cells with MG132, 6 h; average if tested more than once

Check out these entries, answers already filled in.
CN1CC[C@@](O)(c2cc(-c3cccc(-c4ccnc(Nc5nn(C)c6nccnc56)n4)c3)no2)C1=O	> 500 nM
C[C@@H](Nc1nccc(-c2cccc(-c3cc([C@]4(O)CCN(C)C4=O)on3)n2)n1)C(=O)N1CCC(F)(F)C1	> 500 nM
COC(CNc1nccc(-c2cccc(-c3cc([C@]4(O)CCN(C)C4=O)on3)n2)n1)C(F)(F)F (mixture of isomers)	50 to 500 nM

Dear colleague, I am looking for the recorded IC50 of the following compound: Cc1cccnc1[C@@H](C)Nc1nccc(-c2cccc(-c3cc([C@]4(O)CCN(C)C4=O)on3)n2)n1 (single isomer, unassigned)
50 to 500 nM

Input [2H]C1([2H])N(C)C(=O)[C@](O)(c2cc(-c3cccc(-c4ccnc(Nc5ccn(C)n5)n4)n3)no2)C1([2H])[2H]
< 50 nM

Input CN1CC[C@@](O)(c2cc(-c3cc(C(F)(F)F)cc(-c4ccnc(Nc5ccn(C)n5)n4)n3)no2)C1=O
< 50 nM

Input CO[C@@H](C)CNc1nccc(-c2cccc(-c3cc([C@]4(O)CCN(C)C4=O)on3)n2)n1
50 to 500 nM

Input CN1CC[C@@](O)(c2cc(-c3cccc(-c4ccnc(Nc5ccc(-c6nncn6C)cn5)n4)n3)no2)C1=O
50 to 500 nM

Input CN1CC[C@@](O)(c2cc(-c3cccc(-c4ccnc(NCCn5ccc(N)n5)n4)n3)no2)C1=O
> 500 nM

Input CN1CC[C@@](O)(c2cc(-c3cccc(-c4ccnc(Nc5cnn(C)c5Cl)n4)n3)n[nH]2)C1=O (single isomer, unassigned)
> 500 nM

Input CCn1ncc(Nc2nccc(-c3cccc(-c4cc([C@]5(O)CCN(C)C5=O)on4)n3)n2)c1C
< 50 nM

Input CN1CC[C@@](O)(c2cc(-c3cccc(-c4ccnc(Nc5cnn6cccnc56)n4)c3)no2)C1=O
> 500 nM

Input Cc1c(Nc2nccc(-c3cccc(-c4cc([C@@]5(O)CCN(C)C5=O)on4)n3)n2)cnn1C1CCOCC1
< 50 nM

Input Cc1oncc1Nc1nccc(-c2cccc(-c3cc([C@]4(O)CCN(C)C4=O)on3)n2)n1
< 50 nM

----------
# Test system: p-IKKa levels in L363 (NIK translocated multiple myeloma) cells
# assay_details: Assay 2: Effect of compounds on p-IKKa levels in L363 (NIK translocated multiple myeloma) cells
# Type: cell-based
# experimental_setup: Homo sapiens, L-363, 6 h, read-out: Assay 2 IC50 (nM), p-IKKa (Ser 176/180) in BAFF stimulated L363 cells with MG132, 6 h; average if tested more than once
property_measured: IC50

Check out these entries, answers already filled in.
CN1CC[C@@](O)(c2cc(-c3cccc(-c4ccnc(NCc5cnn(C)c5)n4)n3)no2)C1=O	50 to 500 nM
CN1CCn2nc(Nc3nccc(-c4cccc(-c5cc([C@]6(O)CCN(C)C6=O)on5)n4)n3)cc2C1=O	50 to 500 nM
CN1CC(F)(F)[C@@](O)(c2cc(-c3cccc(-c4ccnc(Nc5cnn6c5CCC6)n4)n3)no2)C1=O	< 50 nM

Dear colleague, I am looking for the recorded IC50 of the following compound: Cc1c(Nc2nccc(-c3cccc(-c4cc([C@]5(O)CCN(C)C5=O)on4)n3)n2)cnn1C(F)F
< 50 nM

Input COCCn1ccc(Nc2nccc(-c3cccc(-c4cc([C@]5(O)CCN(C)C5=O)on4)n3)n2)n1 (single isomer, unassigned)
< 50 nM

Input CN1CC[C@@](O)(c2cc(-c3cccc(-c4ccnc(Nc5cn(C)nc5OCC(F)F)n4)n3)no2)C1=O
< 50 nM

Input C[C@@H](Nc1nccc(-c2cccc(-c3cc([C@]4(O)CCN(C)C4=O)on3)n2)n1)C(=O)N1CC(C(F)(F)F)C1
50 to 500 nM

----------
# System: p-IKKa levels in L363 (NIK translocated multiple myeloma) cells
# assay_details: Assay 2: Effect of compounds on p-IKKa levels in L363 (NIK translocated multiple myeloma) cells
# Type: cell-based
# experimental_setup: Homo sapiens, L-363, 6 h, read-out: Assay 2 IC50 (nM), p-IKKa (Ser 176/180) in BAFF stimulated L363 cells with MG132, 6 h; average if tested more than once
property_measured: IC50

COc1cccnc1Nc1nccc(-c2cccc(-c3cc([C@]4(O)CCN(C)C4=O)on3)n2)n1	> 500 nM
COCc1nc(Nc2nccc(-c3cccc(-c4cc([C@]5(O)CCN(C)C5=O)on4)n3)n2)n(C)n1	> 500 nM
CN1CC[C@@](O)(c2cc(-c3cccc(-c4ccnc(Nc5cc(CN6CCOCC6)n(C)n5)n4)n3)no2)C1=O	50 to 500 nM
COc1nccc(Nc2nccc(-c3cccc(-c4cc([C@]5(O)CCN(C)C5=O)on4)n3)n2)n1	< 50 nM

Dear colleague, I am looking for the recorded IC50 of the following compound: CN1CC[C@](O)(c2cnn(-c3cccc(-c4ccnc(Nc5cnn(C)c5)n4)n3)c2)C1=O (single isomer, unassigned)
50 to 500 nM

Input CN1CC[C@@](O)(c2cc(-c3cccc(-c4ccnc(Nc5ccccn5)n4)n3)no2)C1=O
50 to 500 nM

Input CCn1cc(Nc2nccc(-c3cccc(-n4cc([C@]5(O)CCN(C)C5=O)nn4)n3)n2)c(C)n1
< 50 nM

----------
# Tested on: p-IKKa levels in L363 (NIK translocated multiple myeloma) cells
# assay_details: Assay 2: Effect of compounds on p-IKKa levels in L363 (NIK translocated multiple myeloma) cells
# Format: cell-based
# experimental_setup: Homo sapiens, L-363, 6 h, read-out: Assay 2 IC50 (nM), p-IKKa (Ser 176/180) in BAFF stimulated L363 cells with MG132, 6 h; average if tested more than once
property_measured: IC50

Check out these entries, answers already filled in.
Cc1nccc(Nc2nccc(-c3cccc(-c4cc([C@]5(O)CCN(C)C5=O)on4)n3)n2)c1C [Example 128]	< 50 nM
CN1CC[C@@](O)(c2cc(-c3cccc(-c4ccnc(Nc5ncn(CC(F)(F)F)n5)n4)n3)no2)C1=O [Example 305]	50 to 500 nM
C[C@H](F)CCNc1nccc(-c2cccc(-c3cc([C@]4(O)CCN(C)C4=O)on3)n2)n1 [Example 344]	50 to 500 nM
CN1CC[C@@](O)(c2nnc(-c3cccc(-c4ccnc(Nc5cnn(C)c5Cl)n4)n3)s2)C1=O [Example 102]	50 to 500 nM
COc1nn(CC(F)F)cc1Nc1nccc(-c2cccc(-c3cc([C@]4(O)CCN(C)C4=O)on3)n2)n1 [Example 58]	< 50 nM
CN1CC[C@@](O)(c2cc(-c3cccc(-c4ccnc(Nc5cn[nH]c5)n4)n3)no2)C1=O [Example 40]	< 50 nM
Cc1c(Nc2nccc(-c3cccc(-c4cc([C@@]5(O)C(=O)N(C)CC5(F)F)on4)n3)n2)cnn1C [Example 223]	< 50 nM
CN1CC[C@@](O)(c2cn(-c3cccc(-c4ccnc(Nc5ccn(CC(F)F)n5)n4)n3)nn2)C1=O [Example 214]	< 50 nM

// moving on: another record for IC50
Dear colleague, I am looking for the recorded IC50 of the following compound: CN1CC[C@@](O)(c2cc(-c3cccc(-c4ccnc(Nc5cnc6n5CCOC6)n4)n3)no2)C1=O [Example 313]
> 500 nM
